# pKd values compiled below
target: T1, GPC3 (UniProt P51654 25-559, limits assumed); test: SPR (Biacore T200); scFv-Fc captured by anti-human Fc pAb, GPC3 10-320 nM in flow
T1 construct: also called antigen GPC3; Glypican 3
T1 sequence (P51654 25-559 limits assumed): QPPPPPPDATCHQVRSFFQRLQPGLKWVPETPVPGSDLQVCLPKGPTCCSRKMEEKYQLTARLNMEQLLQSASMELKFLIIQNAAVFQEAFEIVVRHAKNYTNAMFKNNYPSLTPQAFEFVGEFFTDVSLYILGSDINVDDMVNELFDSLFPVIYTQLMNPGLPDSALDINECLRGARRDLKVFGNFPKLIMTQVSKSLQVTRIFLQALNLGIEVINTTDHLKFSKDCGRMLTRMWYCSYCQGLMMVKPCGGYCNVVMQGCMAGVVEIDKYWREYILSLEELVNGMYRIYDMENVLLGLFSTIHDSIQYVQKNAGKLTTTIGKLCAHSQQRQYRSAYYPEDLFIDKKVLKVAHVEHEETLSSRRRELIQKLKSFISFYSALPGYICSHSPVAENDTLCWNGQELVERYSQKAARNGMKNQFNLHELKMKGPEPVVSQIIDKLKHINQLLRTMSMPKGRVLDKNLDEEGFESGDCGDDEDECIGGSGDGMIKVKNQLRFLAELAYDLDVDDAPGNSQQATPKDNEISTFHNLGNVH
# pKd = -log10(concentration in molar units)

Binder	pKd
VL1-VH2 humanized scFv (scFv, not shown: a dimerising Fc or GST, Crude scFv with Fc tag from HEK293 supernatant) scFv: DIVMTQTPLSLSVTPGQPASISCRSSQSLVHSNGNTYLHWYLQKPGQSPQLLIYKVSNRFSGVPDRFSGSGSGTDFTLKISRVEAEDVGVYYCSQNTHVPPTFGQGTKVEIKGGGGSGGGGSGGGGSQVQLVQSGAEVKKPGASVKVSCKASGYTFTDYEMHWVRQAPGQGLEWMGALDPKTGDTAYSQKFKGRVTLTADTSTSTVYMELSSLRSEDTAVYYCTRFYSYTYWGQGTLVTVSS	8.77
VL1-VH2.M5 humanized scFv (scFv, not shown: a dimerising Fc or GST, Crude scFv with Fc tag from HEK293 supernatant) scFv: DIVMTQTPLSLSVTPGQPASISCRSSQSLVHSNGNTYLHWYLQKPGQSPQLLIYKVSNRFSGVPDRFSGSGSGTDFTLKISRVEAEDVGVYYCSQNTHVPPTFGQGTKVEIKGGGGSGGGGSGGGGSQVQLVQSGAEVKKPGASVKVSCKASGYTFTDYEMHWVRQAPGQGLEWMGALDPKTGDTAYSQKFQGRVTLTADTSTSTVYMELSSLRSEDTAVYYCTRFYSYTYWGQGTLVTVSS	8.80

Turning now to a further binder:
Input VL1-VH2.M6 humanized scFv (scFv, not shown: a dimerising Fc or GST, Crude scFv with Fc tag from HEK293 supernatant) scFv: DIVMTQTPLSLSVTPGQPASISCRSSQSLVHSNGNTYLHWYLQKPGQSPQLLIYKVSNRFSGVPDRFSGSGSGTDFTLKISRVEAEDVGVYYCSQNTHVPPTFGQGTKVEIKGGGGSGGGGSGGGGSQVQLVQSGAEVKKPGASVKVSCKASGYTFTSYEMHWVRQAPGQGLEWMGALDPKTGDTAYSQKFQGRVTLTADTSTSTVYMELSSLRSEDTAVYYCTRFYSYTYWGQGTLVTVSS , output reported pKd.
8.70

Data credit: patent US20250297029A1
